System: THP-1
Test: CD54 surface expression induction over DMSO control (% over DMSO); higher = stronger dendritic cell activation
Conditions: exposure time: 24 h
Exercise: state measured CD54 surface expression induction for each of the molecules provided.
Answers are plain numbers.

Look over these answered cases.
[in] Checklist item: CD54 surface expression induction tested on THP-1, entry C=CC(=O)OCCCCCCOC(=O)C=C [1,6-Hexanediol diacrylate] (100 µM) , value?
[out] -4.54

[in] Checklist item: CD54 surface expression induction tested on THP-1, entry O=C(O)Cc1cc(I)c(Oc2cc(I)c(O)c(I)c2)c(I)c1 [Tetrac] (100 µM) , value?
[out] 8.45

[in] Checklist item: CD54 surface expression induction tested on THP-1, entry CC(C)CCCCCCCOC(=O)c1ccc(C(=O)OCCCCCCCC(C)C)c(C(=O)OCCCCCCCC(C)C)c1 [Triisodecyl trimellitate] (163 µM) , value?
[out] 10.7

More entries:
[in] Checklist item: CD54 surface expression induction tested on THP-1, entry CCCCCCCCCCCCOCCO [2-(Dodecyloxy)ethanol] (200 µM) , value?
[out] 34.2

====

System: THP-1
Assay: CD54 surface expression induction over DMSO control (% over DMSO); higher = stronger dendritic cell activation
Conditions: exposure time: 24 h
Exercise: state measured CD54 surface expression induction for each of the molecules provided.
Numbers only.

Look over these answered cases.
[in] Checklist item: CD54 surface expression induction tested on THP-1, entry Cc1c2ccccc2c(C)c2c1ccc1ccccc12 [7,12-Dimethylbenzanthracene] (10 µM) , value?
[out] -22

[in] Checklist item: CD54 surface expression induction tested on THP-1, entry COC(=O)CCCCCCCC(=O)OC [Dimethyl nonanedioate] (200 µM) , value?
[out] -1.14

[in] Checklist item: CD54 surface expression induction tested on THP-1, entry O=C(O)c1cc(O)c2ccccc2c1O [1,4-dihydroxy-2-naphthoic acid*] (10 µM) , value?
[out] 374

[in] Checklist item: CD54 surface expression induction tested on THP-1, entry Cc1cccc(N(C)C(=S)Oc2ccc3c(c2)C2CCC3C2)c1 (stereo not drawn) [Tolciclate] (100 µM) , value?
[out] 1.18

[in] Checklist item: CD54 surface expression induction tested on THP-1, entry Clc1ccc(C(Cn2ccnc2)OCc2ccc(Sc3ccccc3)cc2)c(Cl)c1 (stereo not drawn) [Fenticonazole nitrate] (100 µM) , value?
[out] 21.1

Please state CD54 surface expression induction for every molecule in the list that follows.
1. Clc1ccc(C(Cn2ccnc2)OCc2c(Cl)cccc2Cl)c(Cl)c1 (stereo not drawn) [Isoconazole] (100 µM)
2. c1ccc(-c2ccccn2)nc1 [2,2'-Dipyridyl] (200 µM)
3. O=C(Nc1ccccc1)c1cc(Cl)ccc1O [5-Chlorosalicylanilide] (10 µM)

[out]
56.6
-9.09
-4.26

====

Exercise: state measured CD54 surface expression induction for each of the compounds provided.
Test system: THP-1
Assay: CD54 surface expression induction over DMSO control (% over DMSO); higher = stronger dendritic cell activation
Details: exposure time: 24 h
Where a name gives a salt, the structure may show the parent alone.
One number for each entry.

Please state CD54 surface expression induction for every compound in the list that follows.
1. Cc1cc(C2(c3cc(C)c(O)cc3C)OS(=O)(=O)c3ccccc32)c(C)cc1O [p-Xylenol blue] (200 µM)
2. NC(=O)n1c(O)c(C(=O)c2cccs2)c2cc(Cl)ccc21 [Tenidap*] (200 µM)
3. O=C(Oc1ccccc1)c1ccccc1O [Phenyl salicylate] (200 µM)
4. NC(=S)NC(N)=S [2,4-Dithiobiuret] (200 µM)
5. CNc1ccc(O)cc1 [4-(Methylamino)phenol Sulfate] (10 µM)
6. Cc1c(C)n(Cc2ccccc2)c2ccc(C(=O)OCCN(C)C)cc12 [Indocate] (200 µM)
7. CC(C)(C)c1cc(O)ccc1O [tert-Butylhydroquinone] (100 µM)

[out]
1. 8.91
2. 157
3. -8.79
4. 15.9
5. 17.6
6. 30.6
7. 48.9

====

Test system: THP-1
Experiment: CD86 surface expression induction over DMSO control (% over DMSO); higher = stronger dendritic cell activation
Details: exposure time: 24 h
Structures can show the parent of a compound that is named as a salt.
recorded.endpoint: CD86 surface expression induction
Give bare numbers.

Look over these answered cases.
[in] What CD86 surface expression induction value was documented for this compound, CN(C)c1ccc(C(=C2C=CC(=[N+](C)C)C=C2)c2ccccc2)cc1 [Malachite green oxalate*] (10 µM) ?
[out] 195

[in] What CD86 surface expression induction value was documented for this compound, Cc1cccc(N(C)C(=S)Oc2ccc3c(c2)C2CCC3C2)c1 (configuration not stated) [Tolciclate] (100 µM) ?
[out] -1.12

[in] What CD86 surface expression induction value was documented for this compound, Nc1cc(-c2ccncc2)c[nH]c1=O [Amrinone] (100 µM) ?
[out] -0.14

[in] What CD86 surface expression induction value was documented for this compound, Cc1c(C)n(CCN(C)C)c2ccc(C(=O)OCCN(C)C)cc12 [Amindocate] (100 µM) ?
[out] 1.11

[in] What CD86 surface expression induction value was documented for this compound, COC(=O)Nc1nc2ccc(C(=O)C3CC3)cc2[nH]1 [Cyclobendazole] (100 µM) ?
[out] 7.71

Please state CD86 surface expression induction for every compound in the list that follows.
1. Nc1nnc(-c2ccc([N+](=O)[O-])o2)o1 [2-Amino-5-(5-nitro-2-furyl)-1,3,4-oxadiazole] (10 µM)
2. COc1cc(Nc2c(C#N)cnc3cc(OCCCN4CCN(C)CC4)c(OC)cc23)c(Cl)cc1Cl [Bosutinib] (100 µM)
3. O=C(O)Cn1c(C(=O)Nc2nc(-c3ccccc3Cl)cs2)cc2ccccc21 [Lintitript] (100 µM)
4. Sc1nc2ccccc2s1 [2-Mercaptobenzothiazole] (100 µM)
5. O=c1n(CC2CO2)c(=O)n(CC2CO2)c(=O)n1CC1CO1 (configuration not stated) [Triglycidyl isocyanurate] (10 µM)
6. O=C(Nc1ncc([N+](=O)[O-])s1)c1cccs1 [Tenonitrozole] (10 µM)
7. O=C(Oc1ccccc1)c1ccccc1O [Phenyl salicylate] (200 µM)
8. CCCCCCCC/C=C\CCCCCCCC(=O)N(C)CC(=O)O [Oleyl sarcosine] (100 µM)

[out]
[-2.6, 5.12, -2.3, -1.26, 0.85, -9.19, -3.35, -14.4]

====

Tested on: THP-1
Assay: CD86 surface expression induction over DMSO control (% over DMSO); higher = stronger dendritic cell activation
Conditions: exposure time: 24 h
Exercise: state measured CD86 surface expression induction for each of the compounds provided.
Numbers only.

[in] Checklist item: CD86 surface expression induction tested on THP-1, entry Nc1ccccc1N [1,2-Phenylenediamine*] (200 µM) , value?
[out] 88.8

Please state CD86 surface expression induction for every compound in the list that follows.
1. Cc1ccc(O)c(-n2nc3ccccc3n2)c1 [2-(2H-Benzotriazol-2-yl)-4-methylphenol] (100 µM)
2. Oc1c(Br)cc(Br)c2cccnc12 [Broxyquinoline] (100 µM)
3. O=c1[nH]sc2cc(Cl)ccc12 [Ticlatone] (10 µM)
4. CC[C@@]1(O)C(=O)OCc2c1cc1n(c2=O)Cc2c-1nc1ccccc1c2/C=N/OC(C)(C)C [Gimatecan] (10 µM)
5. CCCCCCCCN [n-Octylamine] (100 µM)
6. COC(=O)CCCCCCCC(=O)OC [Dimethyl nonanedioate] (200 µM)

[out]
1: -18.9; 2: 57.8; 3: -7.52; 4: 25.6; 5: -6.07; 6: -0.54

Please state CD86 surface expression induction for every compound in the list that follows.
1. NC(=O)n1c(O)c(C(=O)c2cccs2)c2cc(Cl)ccc21 [Tenidap*] (200 µM)
2. Cc1cc(C2(c3cc(C)c(O)cc3C)OS(=O)(=O)c3ccccc32)c(C)cc1O [p-Xylenol blue] (200 µM)

[out]
98.4
2.3

====

Exercise: state measured CD54 surface expression induction for each of the compounds provided.
System: THP-1
Experiment: CD54 surface expression induction over DMSO control (% over DMSO); higher = stronger dendritic cell activation
Conditions: exposure time: 24 h
Numbers only.

[in] What CD54 surface expression induction value was documented for this compound, CCCOc1ccc2[nH]c(NC(=O)OC)nc2c1 [Oxibendazole] (100 µM) ?
[out] -37.7

Please state CD54 surface expression induction for every compound in the list that follows.
1. CC(C)=CCOc1ccc(/C=C/C(=O)c2ccc(OCC=C(C)C)cc2OCC(=O)O)cc1 [Sofalcone] (100 µM)
2. O=C(N/N=C/c1ccccc1O)c1ccncc1 [Salinazid] (10 µM)
3. O=C(O)c1cn(C2CC2)c2cc(N3CCNCC3)c(F)cc2c1=O [Ciprofloxacin] (100 µM)

[out]
[-27.7, 17.1, -14.9]

[in] What CD54 surface expression induction value was documented for this compound, CCCCCCCCCCCCO [1-Dodecanol] (100 µM) ?
[out] 9.85
